Hello, the source for this data is PubChem BioAssay (NCI), in case you need it.

- Test system: K-562 leukemia
- experiment description: NCI-60 one-dose screen, 48 h (100 = growth as untreated, 0 = no growth, -100 = all killed)
- setup conditions: 10 µM unless noted
The panel holds about 83,000 compounds, 20% with a hit somewhere; the sample as a whole holds those more often.
Category scheme (growth): lower bin: < 10%; middle bin: ≥ 10% and < 40%; upper bin: ≥ 40%

Known results for compounds:
[[record]]
compound = "CCOC(=O)CC1CSC(Nc2ccccc2)=N1 (stereo not given)"
label_class = "upper bin"

[[record]]
compound = "CCN1C(=O)N(CC)C2C1NN=c1s/c(=C3\\C(=O)N(CC(C)C)c4ccccc43)c(=O)n12 (stereo not given)"
label_class = "middle bin"

[[record]]
compound = "O=C(Nc1ncc(Cc2ccccc2)s1)c1ccc2c(c1)OCCCO2"
label_class = "lower bin"

[[record]]
compound = "CC(C)CCN(CCC(C)C)CC(O)c1cc2c(c3ccccc13)CCCC2 (stereo not given)"
label_class = "upper bin"

[[record]]
compound = "Cc1ccc2nc(NC(=O)CSc3nc(-c4ccccc4)c(C#N)c4nnnn34)sc2c1"
label_class = "upper bin"


Using the reported growth, which band applies to CN1CCN(CCOc2ccc(-c3cnc4c(-c5ccc(F)cc5)cnn4c3)cc2)CC1 ?
lower bin

Using the reported growth, which band applies to CCOC(=O)C(Cc1ccc(OC)cc1)C(=O)OCC ?
middle bin

Using the reported growth, which band applies to Cc1ccc(-c2nc(SCc3nc4cc(Cl)c(Cl)cc4[nH]3)[nH]c(=O)c2C#N)cc1 ?
upper bin

Using the reported growth, which band applies to COc1ccc2c(c1)c(-c1nc(-c3c[nH]c4ncccc34)cs1)cn2CCCN1CCOCC1 ?
lower bin
